# key: entry, value: melting point

>  <Molecule>
CCN(C)Cc1cccc(CN(C)c2nc(=O)c3c(OC)c(OC)c(OC)cc3[nH]2)c1

>  <melting point>
106.5 to 108.9 °C

$$$$
>  <Molecule>
COc1cc2[nH]c(N(C)Cc3cccc(CN4CCCC4)c3)nc(=O)c2c(OC)c1OC

>  <melting point>
127 to 129.9 °C

$$$$
>  <Molecule>
COc1cc2[nH]c(N(C)Cc3cccc(N4CCC(C)C4=O)c3)nc(=O)c2c(OC)c1OC (stereo not shown)

>  <melting point>
156.4 to 162 °C

$$$$
>  <Molecule>
COCCN1Cc2ccc(CN(C)c3nc(=O)c4c(C)c(OC)c(OC)cc4[nH]3)cc2C1

>  <melting point>
173.3 to 177.9 °C

$$$$
>  <Molecule>
COc1cc2[nH]c(N(C)Cc3cccc(N4C(=O)CC(C)C4=O)c3)nc(=O)c2c(C)c1OC (stereo not shown)

>  <melting point>
217.8 to 219.2 °C

$$$$

Entry CCCN(C)Cc1cccc(CN(C)c2nc(=O)c3c(C)c(OC)c(OC)cc3[nH]2)c1 — recorded melting point = 128.1 to 129.1 °C

The molecule identified as COc1cc2[nH]c(N(C)Cc3cccc(N4C[C@@H](OC)CC4=O)c3)nc(=O)c2c(OC)c1OC registered its melting point at 142.5 to 147.4 °C

----------
- System: alpha1B adrenoceptor (Homo sapiens)
- Construct: expressed in transfected cells; host or cells: CHO-K1
- Sequence (P35368 whole entry): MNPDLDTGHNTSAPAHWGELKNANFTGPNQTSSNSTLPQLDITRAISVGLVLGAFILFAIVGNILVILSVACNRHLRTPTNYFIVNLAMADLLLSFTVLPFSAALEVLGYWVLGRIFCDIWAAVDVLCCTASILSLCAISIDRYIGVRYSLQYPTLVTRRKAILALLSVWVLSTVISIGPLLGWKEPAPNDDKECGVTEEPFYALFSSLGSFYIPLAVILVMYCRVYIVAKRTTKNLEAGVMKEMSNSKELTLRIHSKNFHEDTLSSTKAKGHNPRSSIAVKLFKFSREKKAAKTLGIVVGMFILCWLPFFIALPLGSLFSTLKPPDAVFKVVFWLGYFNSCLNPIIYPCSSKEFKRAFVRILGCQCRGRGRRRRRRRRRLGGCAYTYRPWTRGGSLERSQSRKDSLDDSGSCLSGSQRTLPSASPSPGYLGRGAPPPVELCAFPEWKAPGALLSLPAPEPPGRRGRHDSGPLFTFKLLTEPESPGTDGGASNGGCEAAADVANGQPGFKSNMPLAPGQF
- Assay Info: [3H]prazosin binding (alpha1-adrenoceptor) assay, membranes of transfected CHO-K1 cells
- Condition Context: transfected CHO-K1 cell membranes, read-out: pKi alpha 1B (converted)
Readout Name: Ki (nM)

Worked examples, 3 compounds total:
>  <Compound>
COc1cc2[nH]c(N(C)Cc3cccc(C(C)N(C)C)c3)nc(=O)c2c(OC)c1OC (stereo not shown)

>  <Ki [nM]>
3.72

$$$$
>  <Compound>
COc1cc2[nH]c(N(C)Cc3ccc(OCC(O)CO)cc3)nc(=O)c2c(C)c1OC (stereo not shown)

>  <Ki [nM]>
6.92

$$$$
>  <Compound>
COc1cc2[nH]c(N(C)Cc3ccc4c(c3)CN(C)C4)nc(=O)c2c(C)c1OC

>  <Ki [nM]>
14.8

$$$$

[I] COc1cc2[nH]c(N(C)Cc3cccc(C4=NCCO4)c3)nc(=O)c2c(OC)c1OC
[II] COc1cc2[nH]c(N(C)Cc3cccc(CN4CCC(OC)C4)c3)nc(=O)c2c(OC)c1OC (stereo not shown)
[III] CCN(C)Cc1ccc(CN(C)c2nc(=O)c3c(OC)c(OC)c(OC)cc3[nH]2)cc1
[IV] COc1cc2[nH]c(NCc3cccc(N=C(C)N(C)C)c3)nc(=O)c2c(C)c1OC
Which order do these items take when sorted by rising Ki? List them. Give the labels in the order specified.
IV, III, II, I
(IV: 0.891 nM, III: 3.09 nM, II: 7.41 nM, I: 14.8 nM)

----------
melting point reference

>  <Compound>
COc1cc2nc(N(C)Cc3cccc(C4=NCCN4C)c3)[nH]c(=O)c2c(C)c1OC

>  <melting point>
145 to 148 °C

$$$$
>  <Compound>
CCN1CCN(c2cccc(CN(C)c3nc(=O)c4c(C)c(OC)c(OC)cc4[nH]3)c2)C1=O

>  <melting point>
201.4 to 207.4 °C

$$$$
>  <Compound>
COc1cc2[nH]c(N(C)Cc3cccc(S(C)(=O)=O)c3)nc(=O)c2c(OC)c1OC

>  <melting point>
231.5 to 232.9 °C

$$$$

The reported value for COc1cc2[nH]c(N(C)Cc3cccc(C(C)N4CCC4)n3)nc(=O)c2c(OC)c1OC (stereo not shown) in terms of melting point is 70.8 to 78.8 °C

----------
Each entry below carries its reported melting point.
Where a name gives a salt, the structure may show the parent alone.

Solved cases below.
>  <Compound>
COCCC(=Nc1cccc(CN(C)c2nc(=O)c3c(OC)c(OC)c(OC)cc3[nH]2)c1)N(C)C

>  <Result>
145 °C

$$$$
>  <Compound>
COc1cc2nc(N(C)Cc3cccc(N4CCCC4)c3)[nH]c(=O)c2cc1OC (as salt: salt)

>  <Result>
220 to 223 °C

$$$$

Could you now look at the following compound, please?
Looking up COc1ccnc(N2CCN(c3nc(=O)c4c(OC)c(OC)c(OC)cc4[nH]3)CC2)c1 , I see its melting point listed as 229 to 231 °C

----------
Where a name gives a salt, the structure may show the parent alone.
Readout Name: melting point

>  <Compound>
COc1cc2[nH]c(N(C)Cc3ccc(OCCCN(C)C)cc3)nc(=O)c2c(C)c1OC (as salt: HCl)

>  <melting point>
191 to 192.2 °C

$$$$
>  <Compound>
COc1cc2[nH]c(N(C)Cc3cccc(CN4CCCC4)c3)nc(=O)c2c(C)c1OC

>  <melting point>
163.9 to 164.5 °C

$$$$
>  <Compound>
COc1cc2[nH]c(N(C)Cc3cccc(OCC(=O)O)c3)nc(=O)c2c(OC)c1OC

>  <melting point>
> 300 °C

$$$$
>  <Compound>
COc1cc2[nH]c(N(C)Cc3cccc(NC(=O)N(C)C)c3)nc(=O)c2c(C)c1OC

>  <melting point>
131.5 to 168 °C

$$$$
>  <Compound>
COCCN1CCN=C1c1cccc(CN(C)c2nc(=O)c3c(C)c(OC)c(OC)cc3[nH]2)c1

>  <melting point>
161 to 164.4 °C

$$$$

Now examine the next entry.
For this compound ( CNC(=O)c1cccc(CN(C)c2nc(=O)c3c(OC)c(OC)c(OC)cc3[nH]2)c1 ), measured melting point is 217.9 to 219.1 °C

----------
Listed molecules paired with reported melting point

>  <Molecule>
CCNCc1cccc(CN(C)c2nc(=O)c3c(C)c(OC)c(OC)cc3[nH]2)c1

>  <Readout Name>
melting point

>  <Result>
158.2 to 158.9 °C

$$$$
>  <Molecule>
CNC(C)c1cccc(CN(C)c2nc(=O)c3c(C)c(OC)c(OC)cc3[nH]2)c1 (stereo not drawn)

>  <Readout Name>
melting point

>  <Result>
161.6 to 164.1 °C

$$$$
>  <Molecule>
COc1cc2[nH]c(N(C)Cc3cccc(N4CCCS4(=O)=O)c3)nc(=O)c2c(C)c1OC

>  <Readout Name>
melting point

>  <Result>
226 to 228.5 °C

$$$$

The molecule listed as COc1cc2[nH]c(N(C)Cc3cccc(OCCO)c3)nc(=O)c2c(C)c1OC has a reported melting point of 180.5 to 183.1 °C

Quick note, melting point for COCCNCc1cccc(CN(C)c2nc(=O)c3c(C)c(OC)c(OC)cc3[nH]2)c1 landed at 150 to 152.1 °C

// melting point value for COc1cc2[nH]c(N(C)Cc3cccc(C(C)N(C)C)c3)nc(=O)c2c(OC)c1OC (stereo not drawn) : 122.6 to 125.5 °C

----------
Listed here: items and their measured melting point.

>  <Molecule>
COc1cc2[nH]c(N(C)Cc3cccc(Nc4nccc(Cl)n4)c3)nc(=O)c2c(OC)c1OC

>  <melting point>
128.9 to 133.4 °C

$$$$
>  <Molecule>
CCN(CCOC)Cc1cccc(CN(C)c2nc(=O)c3c(C)c(OC)c(OC)cc3[nH]2)c1

>  <melting point>
121.8 to 122.3 °C

$$$$
>  <Molecule>
COc1cc2[nH]c(N(C)Cc3cccc(CN4CCC(O)CC4)c3)nc(=O)c2c(OC)c1OC

>  <melting point>
97.5 to 104.7 °C

$$$$
>  <Molecule>
COc1cc2[nH]c(N(C)Cc3cccc(NCCCO)c3)nc(=O)c2c(OC)c1OC

>  <melting point>
47 to 48.5 °C

$$$$
>  <Molecule>
COc1cc2[nH]c(N(C)Cc3cccc(N4CCN(C)C4=O)c3)nc(=O)c2c(OC)c1OC

>  <melting point>
205.4 to 207.8 °C

$$$$

Please fill in: melting point reported for COc1cc2[nH]c(N(C)Cc3cccc(/N=C(\C)N(C)C)c3)nc(=O)c2cc1OC = 221.8 to 223 °C

get_value(item= CCc1c(OC)c(OC)cc2[nH]c(N(C)Cc3cccc(/N=C(\C)N(C)C)c3)nc(=O)c12 , readout=melting point) returns 224.6 to 225.5 °C

Input COc1cc2[nH]c(N(C)Cc3cccc(CNC(C)C)c3)nc(=O)c2c(C)c1OC . Output melting point: 143.3 to 144.4 °C

The reported value for COc1cc2[nH]c(N(C)Cc3cccc(NC4=NCCN4)c3)nc(=O)c2cc1OC in terms of melting point is 163.8 to 176.9 °C

----------
Structures can show the parent of a compound that is named as a salt.
Readout Name: melting point

// CNCc1ccc(CN(C)c2nc(=O)c3c(C)c(OC)c(OC)cc3[nH]2)cc1 (as salt: HCl) : melting point value = 264 to 268 °C

# melting point of COc1ccc(CN(C)c2nc(=O)c3c(C)c(OC)c(OC)cc3[nH]2)cc1OCC(CO)CO = 210.8 to 215.4 °C

Lab note: COc1ccc(CN(C)c2nc(=O)c3c(OC)c(OC)c(OC)cc3[nH]2)cc1OCC(CO)CO (as salt: HCl) gave melting point of 139.7 to 146.6 °C

Quick note, melting point for COc1cc2[nH]c(N(C)Cc3cccc(N4C=NC(C)(C)C4)c3)nc(=O)c2cc1OC [Example 90] landed at 240 to 242 °C

Entry COc1cc2[nH]c(N(C)Cc3cccc(N)c3)nc(=O)c2c(C)c1OC ; melting point = 268 to 269.5 °C

Recorded result, COc1cc2[nH]c(N(C)Cc3cccc(N4CCCC4)c3)nc(=O)c2cc1OC.Cl , melting point: 220 to 223 °C
